Data origin, for the record: patent US20210246166A1

targetOrSystem: T1, recombinant rat MASP1 active protease (amino acids 302-704, C-terminal His Tag) (rat, UniProt Q8CHN8 302-704)
T1 sequence: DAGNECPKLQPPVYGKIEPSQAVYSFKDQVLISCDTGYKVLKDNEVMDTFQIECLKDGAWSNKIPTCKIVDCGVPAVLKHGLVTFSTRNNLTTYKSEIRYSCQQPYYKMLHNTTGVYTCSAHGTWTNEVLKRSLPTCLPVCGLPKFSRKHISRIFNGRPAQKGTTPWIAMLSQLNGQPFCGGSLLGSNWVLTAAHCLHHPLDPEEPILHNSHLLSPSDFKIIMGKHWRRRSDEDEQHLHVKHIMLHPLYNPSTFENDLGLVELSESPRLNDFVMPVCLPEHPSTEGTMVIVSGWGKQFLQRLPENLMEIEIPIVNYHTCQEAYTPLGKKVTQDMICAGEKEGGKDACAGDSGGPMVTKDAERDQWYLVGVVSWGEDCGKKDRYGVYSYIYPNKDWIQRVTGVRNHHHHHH
testName: cell-based or functional assay
Bridge positions count the residues as written; N and C are the ends. Square brackets hold non-standard residues; d marks the D form. Ends that are not written are not given here. Sar = CNCC(=O)O
propertyName: rat MASP1 IC50 (nM)
Give the value, in units of nM, as a plain number.

Quick one: rat MASP1 IC50 for [Sar]ICSRSLPPICIPD-NH2 (disulfide 3-11; N-terminus assumed; SMILES CC[C@H](C)[C@H](NC(=O)CNC)C(=O)N[C@H]1CSSC[C@@H](C(=O)N[C@H](C(=O)N2CCC[C@H]2C(=O)N[C@@H](CC(=O)O)C(N)=O)[C@@H](C)CC)NC(=O)[C@H]([C@@H](C)CC)NC(=O)[C@@H]2CCCN2C(=O)[C@@H]2CCCN2C(=O)[C@H](CC(C)C)NC(=O)[C@H](CO)NC(=O)[C@H](CCCNC(=N)N)NC(=O)[C@H](CO)NC1=O) [Example 271: ((N-Me)G)-IC+SRSLPPIC+IPD-NH2] ?
88.7
